protocol: yeast display, Sf9 membrane polyspecificity reagent, FACS + sequencing; frameworks hold sequencing errors
observed property: polyreactivity (PSR sort gate)

Request: Need polyreactivity (PSR sort gate) of QVQLVESGGGLVQAGGSLRLSCAASGSIFQQYAMGWYRQAPGKERELVASINTSGDGTYYADSVKGRFTISRDNAKNSVYLQMNSLKPEDTAVYYCAVEGIFEQLNRMDYWGQGTQVTVSS , thanks.
Result: low polyreactivity

Request: Item under review: QVQLVESGGGLVQAGGSLRLSCAASGSTFGTYAMGWYRQAPGKERELVATITRRGGRTYYADSVKGRFTISRDNAKNTVYLQMNSLKPEDTAVYYCNAVVRQQGAYDYWGQGTQVTVSS . Reported polyreactivity (PSR sort gate)?
Result: high polyreactivity

Request: What polyreactivity (PSR sort gate) value was documented for this sequence, QVQLVESGGGLVQAGGSLRLSCAASGFTFWTYPMGWYIQAPGKERELVAAIDSGGSTYYADSVKGRFTISRDNAKNTVYLQMNSLKPEDTAVYYCNAGPSVTSGYDYDYRGQGTQVTVSS ?
Result: low polyreactivity

Request: What polyreactivity (PSR sort gate) value was documented for this sequence, QVQLVESGGGLVQAGGSLRLSCAASGSIFPYYAMGWYRPAPGKERELVAAISSGGSTNYADSVKGRFTISRDNAKNTVYLEMNSLKPEDTAVYYCAARWSRLFRHRVNYWYDYWGQGTQVTVSS ?
Result: high polyreactivity

Request: Would you mind telling me what polyreactivity (PSR sort gate) value was observed for QVQLVESGGGLVQAGGSLRLSCAASGSIFTGYAMGWYRQAPGKERELVAAISRSGGRTYYADSVKGRFTISRDNAKYTVYLQMNRLKPEDTAVYYCNSVVSPWNQGYYYWGQGTQVTVSS ?
Result: high polyreactivity

Request: For QGQHVETGGGLVQAGCTLRLSCAASGFTCGNYAMGWYRQAPGKGRELVAAIDSDGSTDYADAVKGRFTISRDNAKNTVYLQMNSLKPEDTAVYYCAARFDYGPRGCDYWGPGTQVTVSS , what is its reported polyreactivity (PSR sort gate)?
Result: low polyreactivity

Request: Using the record for QVQLVESGGGLVQAGGSLRLSCAASGSTFNYYDMGWYRQAPGKERELVATITSRGRSTYYADSVKGRFTISRDNAKNTVYLQMNSLKPVDTAVYYCAADWRAYIRRAAYSPFDYWGQGTQVTVSS , report its polyreactivity (PSR sort gate).
Result: low polyreactivity

Request: # input sequence: QVHLVESGGCLVQAGGSLRLSGAASGGNFSTYAMGWYRQAPGKERELVSSITERGGSTYYADSVKGRFTISRDNAKNTFDLQMNSLKPEDTAVYYCAADWDASWWLVPTSSYDYWGEGTQVTVSS ; wanted: its polyreactivity (PSR sort gate)
Result: low polyreactivity

Others:
Request: Please look up its polyreactivity (PSR sort gate): QVQLVESGRGLVQAGGSLRLSCAASGSILTYYTMGWYRQAPGKERELVAAITRRGGSTYYADSVKGRFTISRDNAKNTVYLQMNRLKPEDTAVYYCNRVLSYHRHKLGMGYWGQGTHVTVSS
Result: high polyreactivity

Request: Data request, read-out polyreactivity (PSR sort gate), for QVQLVESGGGLVQAGGSLRLSCAASGRIFAWNAMGWYRQAPGKERELVAAITRGTNTYYADSVKGRFTISRDNAKNTVYLQMNSLKPEDTAVYYCAARLPYNAIGYYYWGQGTQVTVSS
Result: low polyreactivity

Request: Look at this sequence and give its reported polyreactivity (PSR sort gate). QVQLVESGGGLVQAGGSLRLICAASGLTFFSYAMGWYRQATGKEREFVAAITRRGGRTYYADSVKGRFTISRENANNTVYLQMNSLKPEDTAVYYCNAVPVLISVYRMEYWGQGTQVNVSS
Result: high polyreactivity

Request: # input sequence: QVQLVESGGGLVQAGGSLRLSCAASGRIFRYYAMGWYRQAPGKERELVATITASSGSTYYADSVKGRFTISRDNAKNTVYLQMNSLKPEDTAVYYCAAGFVYRPGSFIRFDYWGQGTQVTVSS ; wanted: its polyreactivity (PSR sort gate)
Result: high polyreactivity

Request: Returns the measured polyreactivity (PSR sort gate) for the input sequence. Input: QVQLVESGGGLVQAGGSLRISCAASGFTFRYYALGWYRQAPGKERELVAAILSSGGSTYYADSVKGRFTISRDNAKNTVYLQINSLKPVDTAVYYCNKVWDRRYDYWGQGTQVTVSS
Result: high polyreactivity

Request: Reported polyreactivity (PSR sort gate), sequence QVQLVESGGGLVQAGGSLRLSCAASGLIFYAYAMGWYRQAPGKEREFVAAINNSGGRTYYADSVKGRFTISRDNAKNTVYLQMYSLKPEDTAVYYCAVYSYYRRTYRREMDYWGQGTQVTVSS : ____
Result: high polyreactivity

Request: Look up polyreactivity (PSR sort gate) for this sequence: HVQLVESGGGLVQAGGSLRLSCAASGFTIKYYGMGWYRQAPGKERELVAAISRRGGSTYYADSVKGRFTISRDNAKNTVYLQMNSLKPEDTAVYYCNAQFARSSGFNYWGQGTQVTVSS
Result: high polyreactivity

Values compiled from the nanobody polyreactivity screen of Harvey et al. (2022).
